Reported OD450 is given for each of the following binders.
SYSTEM: T1, murine CD22 protein (ACROBiosystems, SI2-M52Ha) (murine, UniProt P35329 22-708)
T1 construct: extracellular domain; also called murine CD22-ECD; murine CD22-ECD-His
T1 sequence (looked up): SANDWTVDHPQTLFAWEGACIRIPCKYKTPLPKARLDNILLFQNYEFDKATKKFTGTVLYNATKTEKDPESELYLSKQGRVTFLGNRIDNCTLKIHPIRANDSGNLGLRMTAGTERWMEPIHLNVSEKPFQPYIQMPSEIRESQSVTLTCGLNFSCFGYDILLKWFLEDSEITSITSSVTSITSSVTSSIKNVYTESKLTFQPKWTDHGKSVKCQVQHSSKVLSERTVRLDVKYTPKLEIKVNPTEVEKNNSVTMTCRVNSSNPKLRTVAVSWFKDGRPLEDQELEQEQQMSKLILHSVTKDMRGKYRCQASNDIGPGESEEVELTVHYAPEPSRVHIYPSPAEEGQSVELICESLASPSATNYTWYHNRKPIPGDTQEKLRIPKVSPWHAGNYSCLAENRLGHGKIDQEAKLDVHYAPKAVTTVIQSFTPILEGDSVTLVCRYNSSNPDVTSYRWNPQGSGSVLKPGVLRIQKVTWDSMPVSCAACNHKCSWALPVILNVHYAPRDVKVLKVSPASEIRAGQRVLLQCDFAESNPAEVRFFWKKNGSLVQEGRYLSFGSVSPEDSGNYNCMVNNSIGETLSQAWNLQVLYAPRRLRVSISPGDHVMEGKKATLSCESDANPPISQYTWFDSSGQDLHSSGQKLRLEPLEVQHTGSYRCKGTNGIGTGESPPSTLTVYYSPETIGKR
EXPERIMENT_SUMMARY: ELISA, coated murine CD22, 0.00001 nM Ab
REPORTED_METRIC: OD450 (OD450)

INSERT INTO measurements (binder, test_value) VALUES
  ('F1.200.11 human-murine chimeric antibody (antibody, human IgG1, kappa, V domains shown, Chimeric, human IgG1 / kappa) VH: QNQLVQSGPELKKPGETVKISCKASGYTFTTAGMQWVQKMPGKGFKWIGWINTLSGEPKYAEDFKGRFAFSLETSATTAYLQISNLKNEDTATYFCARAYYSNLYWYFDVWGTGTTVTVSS VL: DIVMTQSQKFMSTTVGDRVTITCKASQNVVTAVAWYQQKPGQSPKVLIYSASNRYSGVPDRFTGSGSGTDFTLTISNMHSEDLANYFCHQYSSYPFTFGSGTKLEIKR', 0.06),
  ('F1.192.1 human-murine chimeric antibody (antibody, human IgG1, kappa, V domains shown, Chimeric, human IgG1 / kappa) VH: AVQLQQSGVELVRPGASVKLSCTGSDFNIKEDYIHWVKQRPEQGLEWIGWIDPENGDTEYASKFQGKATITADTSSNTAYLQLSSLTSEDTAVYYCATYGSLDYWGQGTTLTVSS VL: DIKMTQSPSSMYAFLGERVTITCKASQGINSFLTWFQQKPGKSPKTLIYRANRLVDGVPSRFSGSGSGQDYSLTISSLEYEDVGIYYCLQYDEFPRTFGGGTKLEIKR', 0.07),
  ('F1.7.6 human-murine chimeric antibody (antibody, human IgG1, kappa, V domains shown, Chimeric, human IgG1 / kappa; VL tied by name) VH: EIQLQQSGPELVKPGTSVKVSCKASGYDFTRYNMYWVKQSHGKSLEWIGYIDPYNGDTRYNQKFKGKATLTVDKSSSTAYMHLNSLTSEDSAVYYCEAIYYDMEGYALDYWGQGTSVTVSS VL: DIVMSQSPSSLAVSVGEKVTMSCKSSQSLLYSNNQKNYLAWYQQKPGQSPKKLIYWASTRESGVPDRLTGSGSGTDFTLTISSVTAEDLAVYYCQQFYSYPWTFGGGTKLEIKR', 0.06),
  ('F2.151.13 human-murine chimeric antibody (antibody, human IgG1, lambda, V domains shown, Chimeric, human IgG1 / lambda) VH: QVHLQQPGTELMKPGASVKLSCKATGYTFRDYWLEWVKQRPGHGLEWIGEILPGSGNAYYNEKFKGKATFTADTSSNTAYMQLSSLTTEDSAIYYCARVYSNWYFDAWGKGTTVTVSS VL: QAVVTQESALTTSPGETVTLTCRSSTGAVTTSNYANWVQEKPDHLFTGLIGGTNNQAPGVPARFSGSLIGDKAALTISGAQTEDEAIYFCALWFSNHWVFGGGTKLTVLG', 0.07),
  ('m971-hIgG1 (antibody, V domains shown, Positive control anti-human CD22 antibody; V regions from US 8,591,889 B on human IgG1 constant regions) VH: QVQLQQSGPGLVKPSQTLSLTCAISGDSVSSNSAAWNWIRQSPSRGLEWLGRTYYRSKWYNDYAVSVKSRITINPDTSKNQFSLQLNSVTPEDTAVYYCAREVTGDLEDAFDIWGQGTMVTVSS VL: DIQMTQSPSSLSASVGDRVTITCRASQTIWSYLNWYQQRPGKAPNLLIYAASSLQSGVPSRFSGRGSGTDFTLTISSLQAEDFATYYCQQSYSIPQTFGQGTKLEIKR', 0.07),
  ('F1.17.1 human-murine chimeric antibody (antibody, human IgG1, kappa, V domains shown, Chimeric, human IgG1 / kappa) VH: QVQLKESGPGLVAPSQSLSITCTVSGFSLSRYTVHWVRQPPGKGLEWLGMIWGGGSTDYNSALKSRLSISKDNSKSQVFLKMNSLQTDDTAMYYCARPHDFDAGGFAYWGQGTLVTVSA VL: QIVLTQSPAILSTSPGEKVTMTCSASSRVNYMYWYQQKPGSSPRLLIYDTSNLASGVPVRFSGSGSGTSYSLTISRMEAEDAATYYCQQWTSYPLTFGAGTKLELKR', 0.06),
  ('F2.205.9 human-murine chimeric antibody (antibody, human IgG1, lambda, V domains shown, Chimeric, human IgG1 / lambda; VL tied by name) VH: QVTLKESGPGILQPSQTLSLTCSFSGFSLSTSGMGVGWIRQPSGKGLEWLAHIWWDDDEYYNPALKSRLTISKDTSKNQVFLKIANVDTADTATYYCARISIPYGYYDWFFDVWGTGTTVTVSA VL: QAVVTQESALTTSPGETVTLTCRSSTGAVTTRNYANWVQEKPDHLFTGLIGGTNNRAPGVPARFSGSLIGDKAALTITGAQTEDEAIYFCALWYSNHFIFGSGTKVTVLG', 0.06),
  ('F2.99.1 human-murine chimeric antibody (antibody, human IgG1, lambda, V domains shown, Chimeric, human IgG1 / lambda; VL tied by name) VH: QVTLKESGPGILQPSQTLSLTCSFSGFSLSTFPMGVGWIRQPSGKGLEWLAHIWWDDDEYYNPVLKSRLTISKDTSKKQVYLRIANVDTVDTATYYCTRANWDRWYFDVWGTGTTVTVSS VL: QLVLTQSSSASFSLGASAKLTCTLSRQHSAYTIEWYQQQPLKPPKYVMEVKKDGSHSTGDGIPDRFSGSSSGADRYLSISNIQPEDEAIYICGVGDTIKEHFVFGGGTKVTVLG', 0.06),
  ('F1.224.1 human-murine chimeric antibody (antibody, human IgG1, kappa, V domains shown, Chimeric, human IgG1 / kappa; VL tied by name) VH: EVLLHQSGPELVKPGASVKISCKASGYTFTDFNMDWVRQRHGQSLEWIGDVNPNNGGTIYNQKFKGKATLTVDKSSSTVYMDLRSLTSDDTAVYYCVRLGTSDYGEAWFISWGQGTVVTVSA VL: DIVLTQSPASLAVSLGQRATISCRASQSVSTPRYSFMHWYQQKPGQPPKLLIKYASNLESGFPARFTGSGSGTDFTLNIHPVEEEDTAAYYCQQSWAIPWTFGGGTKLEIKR', 0.06),
  ('F2.180.16 human-murine chimeric antibody (antibody, human IgG1, lambda, V domains shown, Chimeric, human IgG1 / lambda) VH: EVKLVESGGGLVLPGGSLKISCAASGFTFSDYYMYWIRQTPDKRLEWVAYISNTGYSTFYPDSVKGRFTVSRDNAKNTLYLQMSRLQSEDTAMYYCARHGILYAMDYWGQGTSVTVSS VL: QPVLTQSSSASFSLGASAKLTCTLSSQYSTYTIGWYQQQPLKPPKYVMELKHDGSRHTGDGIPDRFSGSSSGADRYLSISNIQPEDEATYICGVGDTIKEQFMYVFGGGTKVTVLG', 0.06);
